Reported Minimum inhibitory concentration is given for each of the following compounds.
# System: Staphylococcus aureus FDA209P
# assay_protocol: Anti-bacterial test, minimum inhibitory concentration on agar
# Format: cell-based
# test_parameters: Staphylococcus aureus FDA209P; medium B—TSA
Give the number; µg/mL is assumed, so skip it.

compound	measurement_target	Minimum inhibitory concentration [µg/mL]
CON=C(C(=O)NC1CN(S(=O)(=O)[O-])C1=O)c1csc(N)n1.[Na+] (centres unmarked)	Staphylococcus aureus FDA209P	50
CCCCCCCCN1CCN(C(=O)NC(C(=O)NC2CN(S(=O)(=O)[O-])C2=O)c2cccs2)C(=O)C1=O.[Na+] (centres unmarked)	Staphylococcus aureus FDA209P	3.13
O=C(NC1CN(S(=O)(=O)[O-])C1=O)C(NC(=O)N1CCN(N=Cc2ccco2)C1=O)c1cccs1.[Na+] (centres unmarked)	Staphylococcus aureus FDA209P	6.25
CCN1CCN(C(=O)NC(C(=O)NC2CN(S(=O)(=O)[O-])C2=O)c2cccs2)C(=O)C1=O.[Na+] (racemic)	Staphylococcus aureus FDA209P	6.25

With those in mind, consider the next compound.
Please look up its Minimum inhibitory concentration: CCN1CCN(C(=O)N[C@H](C(=O)NC2CN(S(=O)(=O)[O-])C2=O)c2cccs2)C(=O)C1=O.[Na+] (some centres unmarked)
6.25

---

Each record here notes measured MIC.
# System: Bordetella bronchiseptica Sagami
# assay_protocol: Anti-bacterial test, minimum inhibitory concentration on agar
# Format: cell-based
# test_parameters: Bordetella bronchiseptica Sagami; medium B—TSA; read-out: Minimum inhibitory concentration

Requested read-out: MIC. Entry: O=C(NC1CN(S(=O)(=O)O)C1=O)[C@H](NC(=O)N1CCN(N=Cc2cccs2)C1=O)c1ccccc1 (stereo partly drawn) [Compound K]
> 100 µg/mL

GET /values?readout=MIC&item= CCN1CCN(C(=O)NC(C(=O)NC2CN(S(=O)(=O)O)C2=O)c2csc(N)n2)C(=O)C1=O (stereo not drawn) [Compound D]
> 100 µg/mL

Fill in the blank: the reported MIC of CCCCCCCCN1CCN(C(=O)N[C@@H](C(=O)NC2CN(S(=O)(=O)O)C2=O)c2ccccc2)C(=O)C1=O (stereo partly drawn) [Compound G] is ____.
> 100 µg/mL

Recorded MIC of CCN1CCN(C(=O)N[C@@H](C(=O)NC2CN(S(=O)(=O)O)C2=O)c2ccccc2)C(=O)C1=O (single isomer, unassigned) [Compound B] , please.
> 100 µg/mL

Fill in the blank: the reported MIC of O=C(NC1CN(S(=O)(=O)O)C1=O)[C@H](NC(=O)N1CCN(N=Cc2ccco2)C1=O)c1ccccc1 (stereo partly drawn) [Compound I] is ____.
> 100 µg/mL

Suppose we examine the molecule CCCCCCCCN1CCN(C(=O)NC(C(=O)NC2CN(S(=O)(=O)O)C2=O)c2csc(N)n2)C(=O)C1=O (stereo not drawn) [Compound H] ; what MIC value has been reported?
> 100 µg/mL

---

# Tested on: Proteus mirabilis IFO 3849
# assay_protocol: Anti-bacterial test, minimum inhibitory concentration on agar
# Format: cell-based
# test_parameters: Proteus mirabilis IFO 3849; medium TSA
Parameter Minimum inhibitory concentration: see the listing below.
Give just the number in µg/mL; leave the unit off.

compound	measurement_target	quantity_unit	Minimum inhibitory concentration
CCCCCCCCN1CCN(C(=O)NC(C(=O)NC2CN(S(=O)(=O)[O-])C2=O)c2cccs2)C(=O)C1=O.[Na+] (stereo not shown)	Proteus mirabilis IFO 3849	µg/mL	3.13

Looking for the measured Minimum inhibitory concentration of CCN1CCN(C(=O)NC(C(=O)NC2CN(S(=O)(=O)[O-])C2=O)c2cccs2)C(=O)C1=O.[Na+] (racemic) , can you help?
0.78

What value of Minimum inhibitory concentration has been recorded for this entry: O=C(NC1CN(S(=O)(=O)[O-])C1=O)C(NC(=O)N1CCN(N=Cc2ccco2)C1=O)c1cccs1.[Na+] (stereo not shown)
0.78

Form field: reported Minimum inhibitory concentration of CCN1CCN(C(=O)N[C@H](C(=O)NC2CN(S(=O)(=O)[O-])C2=O)c2cccs2)C(=O)C1=O.[Na+] (stereo partly shown)
0.78

---

# Tested on: Proteus vulgaris IFO 3988
# assay_protocol: Anti-bacterial test, minimum inhibitory concentration on agar
# Format: cell-based
# test_parameters: Proteus vulgaris IFO 3988; medium TSA
assay_metric: Minimum inhibitory concentration (µg/mL)
I only need the number, in µg/mL, no unit after it.

// lookup Minimum inhibitory concentration for O=C(NC1CN(S(=O)(=O)[O-])C1=O)C(NC(=O)N1CCN(N=Cc2ccco2)C1=O)c1cccs1.[Na+] (stereo not shown)
0.2

Looking for the measured Minimum inhibitory concentration of CCCCCCCCN1CCN(C(=O)NC(C(=O)NC2CN(S(=O)(=O)[O-])C2=O)c2cccs2)C(=O)C1=O.[Na+] (stereo not shown) , can you help?
1.56

---

# System: Pseudomonas aeruginosa IFO 3455
# assay_protocol: Anti-bacterial test, minimum inhibitory concentration on agar
# Assay type: cell-based
# test_parameters: IFO3455; Pseudomonas aeruginosa IFO 3455; medium TSA; read-out: Minimum inhibitory concentration
# From the text: The compound (I) thus obtained is useful as a drug, being active against certain gram-positive and gram-negative bacteria. By way of example, the compounds are active against the following micro-organisms. […]
Readings of MIC for the listed compounds
The figure you give is taken to be in µg/mL; do not add the unit.

Look over these answered cases.
compound	quantity_unit	MIC
CCCCCCCCN1CCN(C(=O)NC(C(=O)NC2CN(S(=O)(=O)O)C2=O)c2csc(N)n2)C(=O)C1=O (centres unmarked)	µg/mL	12.5
CCN1CCN(C(=O)NC(C(=O)NC2CN(S(=O)(=O)O)C2=O)c2csc(N)n2)C(=O)C1=O (centres unmarked)	µg/mL	3.13
O=C(NC1CN(S(=O)(=O)O)C1=O)[C@H](NC(=O)N1CCN(N=Cc2cccs2)C1=O)c1ccccc1 (some centres unmarked)	µg/mL	3.13
CCCCCCCCN1CCN(C(=O)N[C@@H](C(=O)NC2CN(S(=O)(=O)O)C2=O)c2ccccc2)C(=O)C1=O (some centres unmarked)	µg/mL	1.56

Consider now this further compound.
Find the measured MIC: item CCN1CCN(C(=O)N[C@@H](C(=O)NC2CN(S(=O)(=O)O)C2=O)c2ccccc2)C(=O)C1=O (single isomer, unassigned) , target or system Pseudomonas aeruginosa IFO 3455.
1.56

---

# Test system: Pseudomonas aeruginosa U 31
# assay_protocol: Anti-bacterial test, minimum inhibitory concentration on agar
# Assay type: cell-based
# test_parameters: Pseudomonas aeruginosa U 31; medium TSA
Listing: Minimum inhibitory concentration of selected compounds

Solved entries:
compound	measurement_target	value_observed
CCCCCCCCN1CCN(C(=O)NC(C(=O)NC2CN(S(=O)(=O)[O-])C2=O)c2cccs2)C(=O)C1=O.[Na+] (stereo not shown)	Pseudomonas aeruginosa U 31	25 µg/mL
O=C(NC1CN(S(=O)(=O)[O-])C1=O)C(NC(=O)N1CCN(N=Cc2ccco2)C1=O)c1cccs1.[Na+] (stereo not shown)	Pseudomonas aeruginosa U 31	>100 µg/mL
CCN1CCN(C(=O)N[C@H](C(=O)NC2CN(S(=O)(=O)[O-])C2=O)c2cccs2)C(=O)C1=O.[Na+] (stereo partly shown)	Pseudomonas aeruginosa U 31	>100 µg/mL

Now take the following compound into account.
Sample CCN1CCN(C(=O)NC(C(=O)NC2CN(S(=O)(=O)[O-])C2=O)c2cccs2)C(=O)C1=O.[Na+] (racemic) — what was its Minimum inhibitory concentration?
>100 µg/mL

---

# Tested on: Staphylococcus aureus 308A—1
# assay_protocol: Anti-bacterial test, minimum inhibitory concentration on agar
# Assay type: cell-based
# test_parameters: Staphylococcus aureus 308A—1; medium TSA; read-out: Minimum inhibitory concentration
# Description: The compound (I) thus obtained is useful as a drug, being active against certain gram-positive and gram-negative bacteria. By way of example, the compounds are active against the following micro-organisms. […]
Consider the following compounds and their measured MIC readings.
# value in µg/mL; strip the unit string

compound	MIC (µg/mL)
CCN1CCN(C(=O)NC(C(=O)NC2CN(S(=O)(=O)O)C2=O)c2csc(N)n2)C(=O)C1=O (stereo not shown) [Compound D]	6.25

Give the measured MIC of O=C(NC1CN(S(=O)(=O)O)C1=O)[C@H](NC(=O)N1CCN(N=Cc2cccs2)C1=O)c1ccccc1 (stereo partly shown) [Compound K] .
3.13

Quick one: MIC of CCN1CCN(C(=O)N[C@@H](C(=O)NC2CN(S(=O)(=O)O)C2=O)c2ccccc2)C(=O)C1=O (single isomer, unassigned) [Compound B] ?
3.13

Which MIC is listed for CCCCCCCCN1CCN(C(=O)N[C@@H](C(=O)NC2CN(S(=O)(=O)O)C2=O)c2ccccc2)C(=O)C1=O (stereo partly shown) [Compound G] ?
0.78
